Reference source: the RNAGym collection of RNA variant scans (doi:10.7554/elife.90254)

B1: LINE1-full (parent)
chain: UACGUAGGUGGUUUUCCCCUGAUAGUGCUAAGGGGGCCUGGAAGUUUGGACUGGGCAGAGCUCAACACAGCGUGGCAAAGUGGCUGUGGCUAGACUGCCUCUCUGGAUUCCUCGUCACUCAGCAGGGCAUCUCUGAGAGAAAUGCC

Variants of: B1
Assay: self-cleavage, relative activity (ratio to wild type); higher = more cleavage; in vitro, sequencing; the parent is a self-cleaving ribozyme
true (1) means recorded self-cleavage is 1 or above; false (0) means it is below 1.

**Q:** Answer whether self-cleavage of U91C A138U is greater than or equal to 1.
**A:** false (0)

**Q:** Answer whether self-cleavage of C56U A124G is greater than or equal to 1.
**A:** false (0)
